The reported measurements were obtained from patent US20120195913A1.

Molecular target: T1, BAFFR:Fc fusion protein (human, UniProt Q96RJ3 1-78, biotinylated in the competition ELISA)
T1 construct: Bought reagent; also called human BAFFR:Fc; bio-BAFFR:Fc; not shown: Fc part of the bought fusion protein (Alexis / Axxora)
T1 sequence: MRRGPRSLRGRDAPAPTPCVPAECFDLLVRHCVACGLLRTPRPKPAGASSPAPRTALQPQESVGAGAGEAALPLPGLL
Assay: BLyS/BAFFR:Fc competition ELISA; antibody titrated, BLyS coated
Reported metric: pIC50
Note on units: pIC50 is unitless, being -log10 of a concentration expressed in mol/L.

Binder	Measured value
MOR07348 Fab (Fab, V domains shown, Human Fab format; also called MOR7348; MOR007348) VH: QVQLQQSGPGLVKPSQTLSLTCAISGDSVSSNSAAWGWIRQSPGRGLEWLGRIYYRSKWYNSYAVSVKSRITINPDTSKNQFSLQLNSVTPEDTAVYYCARYDWVPKIGVFDLWGQGTLVTVSS VL: DIVLTQSPATLSLSPGERATLSCRASQWIEAGYLSWYQQKPGQAPRLLIYGSSSRATGVPARFSGSGSGTDFTLTISSLEPEDFAVYYCQQLYSSPMTFGQGTKVEIK	9.02
MOR06743 Fab (Fab, V domains shown, Human Fab format; also called MOR6743) VH: QVQLQQSGPGLVKPSQTLSLTCAISGDSVSSNSAAWGWIRQSPGRGLEWLGRIYYRSKWYNSYAVSVKSRITINPDTSKNQFSLQLNSVTPEDTAVYYCARYDWVPKIGVFDSWGQGTLVTVSS VL: DIVLTQSPATLSLSPGERATLSCRASQMIDLRYLSWYQQKPGQAPRLLIYGSSSRATGVPARFSGSGSGTDFTLTISSLEPEDFAVYYCQQLYSSPMTFGQGTKVEIK	10.00
MOR07342 Fab (Fab, V domains shown, Human Fab format) VH: QVQLQQSGPGLVKPSQTLSLTCAISGDSVSSNSAAWGWIRQSPGRGLEWLGRIYYRSKWYNNYAVSVKSRITINPDTSKNQFSLQLNSVTPEDTAVYYCARYKWVPKIGVFDSWGQGTLVTVSS VL: DIVLTQSPATLSLSPGERATLSCRASQMIDLRYLSWYQQKPGQAPRLLIYGSSSRATGVPARFSGSGSGTDFTLTISSLEPEDFAVYYCQQFYSSPLTFGQGTKVEIK	9.85

Attention now turns to another entry.
Prompt: Fill in: pIC50 of MOR07347 Fab (Fab, V domains shown, Human Fab format) VH: QVQLQQSGPGLVKPSQTLSLTCAISGDSVSSNSAAWGWIRQSPGRGLEWLGRIYYRSKWYNSYAVSVKSRITINPDTSKNQFSLQLNSVTPEDTAVYYCARYQWVPKIGVFDSWGQGTLVTVSS VL: DIVLTQSPATLSLSPGERATLSCRASQEILPEYLSWYQQKPGQAPRLLIYGSSSRATGVPARFSGSGSGTDFTLTISSLEPEDFAVYYCQQFYSSPLTFGQGTKVEIK is ___
Response: 10.00
